For each record, write down the corresponding inhibition.
system-under-test: Tyrosine-protein kinase Srms (Homo sapiens);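 further: reported value is a mean of the inhibition readings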
assay-conditions: at 0.1 µM
Write down the numeric answer in % and omit the unit.

Q. // returns reported inhibition for input CS(=O)(=O)CCNCc1ccc(-c2ccc3ncnc(Nc4ccc(OCc5ccccc5)c(Br)c4)c3c2)o1
A. -0.64

Q. // repeat for C[C@@H](Oc1cc(-n2cnc3ccc(OCC4CCN(C)CC4)cc32)sc1C(N)=O)c1ccccc1Cl and report
A. -3.18

Q. Here is the next compound: COc1cc(Nc2ncc(-c3ccccc3)o2)cc(OC)c1OC
A. -1.26

Q. Please do the same for COc1cc(N2CCN(C(C)C)CC2)ccc1Nc1nc(Nc2ccc(F)cc2C(=O)NC[C@@H](O)CO)c2cc[nH]c2n1 as well.
A. -2.12

Q. Same read-out for COc1ccc2cc(-c3c(-c4ccncc4)nc(-c4ccc([S+](C)[O-])cc4C)n3C)ccc2c1 (stereo not drawn) ?
A. 1.97

Q. Next: Fc1ccc(-c2ncn(CCCN3CCOCC3)c2-c2ccncc2)cc1
A. -3.46

Q. Another compound to check: O=C(Nc1n[nH]c2cc(-c3cc(F)ccc3F)ccc12)C1CC1
A. -0.64

Q. Now this one: N#Cc1ccc(Oc2nccc(-c3c(-c4ccc(F)cc4)ncn3C3CCNCC3)n2)cc1
A. -3.21
